These measurements were taken from PubChem BioAssay AID602458.

solubility values, listed per item
- Tested on: 1xPBS pH 7.4 kinetic solubility, UV absorbance
- ASSAY_NOTES: kinetic aqueous solubility of hits, late-stage follow-up, ADME assay for GPR30 and estrogen receptor ligands, biophysical, 1xPBS, pH 7.4, UV absorbance (AID 602458)
- MEASUREMENT_CONDITIONS: stronger effect = higher value
Activity calls are given as the source filed them.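 How the source made its calls: active means compounds whose saturated solubility in pH 7.4 saline buffer exceeds 10 µg/mL; inactive means the rest.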

CC(=O)c1ccc2c(c1)[C@@H]1C=CC[C@@H]1[C@H](c1cc3c(cc1Br)OCO3)N2 = 0.14 µg/mL (inactive)

Asked: What value of measured solubility is listed for COc1cc([N+](=O)[O-])cc2c1NC(C1CC=CCC1)C1CC=CC21 (configuration not stated) ?
Given back: 0.28 µg/mL (inactive)
